# System Name: nuclear receptor RORγ [核受体RORγ] (Homo sapiens)
# Construct: 重组质粒:Gal4-RORγLBD:25ng
# Sequence (P51449 269-508 limits assumed): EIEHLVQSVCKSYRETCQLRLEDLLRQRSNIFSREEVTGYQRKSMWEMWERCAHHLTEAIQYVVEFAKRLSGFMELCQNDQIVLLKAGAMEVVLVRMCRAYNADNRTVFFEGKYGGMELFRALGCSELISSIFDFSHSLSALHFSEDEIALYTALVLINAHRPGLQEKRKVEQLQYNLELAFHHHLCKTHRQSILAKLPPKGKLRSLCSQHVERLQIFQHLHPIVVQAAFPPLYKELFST
# Assay Method Text: Dual-luciferase reporter assay, inhibition of nuclear receptor RORγ at cell level in 293T cells (Gal4-RORγLBD)
# Assay Context: inhibitory activity against RORγ at cell level; 293T cells, 24 h incubation with compound
A collection of molecules and their measured pIC50
Notebook: values listed as pIC50 are -log10 of the concentration (mol/L).

// known answers, use as guide
>>> number("Cc1ccc(S(=O)(=O)Nc2ccc3c(c2)N(S(=O)(=O)c2ccc(F)cc2)CCC3)s1")
6.13
>>> number("COC(=O)c1ccc(CS(=O)(=O)Nc2ccc3c(c2)N(S(=O)(=O)c2ccc(F)cc2)CCC3)cc1")
6.03
>>> number("O=S(=O)(Nc1ccc2c(c1)N(S(=O)(=O)c1ccc(F)cc1)CCO2)c1ccc2c(c1)OCCO2")
6.16
>>> number("COC(=O)c1ccccc1S(=O)(=O)N1CCCc2ccc(NS(=O)(=O)c3ccc(F)cc3F)cc21")
6.80

Problem: Which pIC50 is listed for COC(=O)c1cccc(CS(=O)(=O)N2CCCc3ccc(NS(=O)(=O)c4ccc(F)cc4F)cc32)c1 ?
Solution: 6.03

Problem: Which pIC50 is listed for COC(=O)c1ccccc1S(=O)(=O)N1CCCc2ccc(NS(=O)(=O)c3c(Cl)cccc3Cl)cc21 ?
Solution: 6.64
